biological target: AMP-activated protein kinase, AMPK (Homo sapiens) (UniProt P54646+O43741+P54619+Q9UGJ0+Q9Y478+Q13131+Q9UGI9); assay: AMP-dependent Kinase enzyme assay. An in vitro enzyme assay that detects ADP turnover that is directly proportional to AMPK activity. This uses naive AMPK that is activated during the assay with MK-8722; type: functional; set-up: scale not given: direction of the effect not stated beside the values; conditions: 30 µM
Give Percent Effect for every item shown.
// units = %; emit number, no label

Enquiry: Fill in the blank: the reported Percent Effect of CCn1nc(CNC(=O)C2CC(=O)N(C3CCCC3)C2)c2ccccc21 (stereo not given) is ____.
Return: 3.05

Enquiry: Fill in the blank: the reported Percent Effect of `CCN(CC)C1CCN(C(=O)NCc2c(C)noc2C)CC1` is ____.
Return: -3.43

Enquiry: Fill in the blank: the reported Percent Effect of `Cc1cc(CNCc2c(C)nn(C)c2N2CCOCC2)no1` is ____.
Return: -9.93

Enquiry: Fill in the blank: the reported Percent Effect of `CNC(=O)c1nc2c(s1)CCN(C(=O)c1cccnc1)CC2` is ____.
Return: 4.01

Enquiry: Fill in the blank: the reported Percent Effect of COCC1CN(C(=O)c2cccn2C)Cc2nccn2C1 (stereo not given) is ____.
Return: 12.7

Enquiry: Fill in the blank: the reported Percent Effect of `Cc1ccc(C(=O)N2CCN(CCCSCC#N)CC2)o1` is ____.
Return: 1.04

Enquiry: Fill in the blank: the reported Percent Effect of `CNC(=O)c1cc2c(nc1NCC(C)C)CCN(S(=O)(=O)C1CC1)CC2` is ____.
Return: 5.7

Enquiry: Fill in the blank: the reported Percent Effect of CCc1ccc(OCC(O)CN2CCN(S(C)(=O)=O)CC2)cc1 (stereo not given) is ____.
Return: 3.94

Enquiry: Fill in the blank: the reported Percent Effect of FC(F)(F)COCCN1CCCC(c2noc(C3CC3)n2)C1 (stereo not given) is ____.
Return: -7.13

Enquiry: Fill in the blank: the reported Percent Effect of Cc1nc(C)n(CC2CN(CC(=O)Nc3nccs3)CCO2)n1 (stereo not given) is ____.
Return: -0.871

Enquiry: Fill in the blank: the reported Percent Effect of CCN1C(=O)CCC12CCCN(Cc1nccs1)CC2 (stereo not given) is ____.
Return: 11.7

Enquiry: Fill in the blank: the reported Percent Effect of `Cc1cc(CN2CC[C@H]3C(=O)N(c4ccccc4)CCO[C@H]3C2)no1` is ____.
Return: 1.48

Enquiry: Fill in the blank: the reported Percent Effect of CN(C)C(=O)NC1COC2(CCN(Cc3ccccc3)CC2)C1 (stereo not given) is ____.
Return: 7.68

Enquiry: Fill in the blank: the reported Percent Effect of Cc1ccc(C2CCCCCN2Cc2cn(C)nc2C)s1 (stereo not given) is ____.
Return: 0.0483

Enquiry: Fill in the blank: the reported Percent Effect of Cc1occc1C(=O)Nc1ccnc(OC2CCOC2)c1 (stereo not given) is ____.
Return: -7.48

Enquiry: Fill in the blank: the reported Percent Effect of `COc1cccc(CN(C)C(=O)CN2CCN(CCO)CC2)c1` is ____.
Return: -6.71

Enquiry: Fill in the blank: the reported Percent Effect of `O=C(COCc1nc(-c2ccncc2)no1)N1CCCC1` is ____.
Return: 5.42

Enquiry: Fill in the blank: the reported Percent Effect of `COc1ccc(CNC(=O)CNc2cc3c(cc2Cl)OCCCO3)cc1` is ____.
Return: 2.47

Enquiry: Fill in the blank: the reported Percent Effect of CCOc1ncccc1C(=O)N1CCCCC1c1nccs1 (stereo not given) is ____.
Return: -17.5

Enquiry: Fill in the blank: the reported Percent Effect of `Cc1ccc(CNS(=O)(=O)CC2=NC(=O)n3cccc3C2=O)cc1` is ____.
Return: 7.77

Enquiry: Fill in the blank: the reported Percent Effect of O=S(=O)(CCN1CCOC(Cn2cccn2)C1)C(F)(F)F (stereo not given) is ____.
Return: 13.4

Enquiry: Fill in the blank: the reported Percent Effect of COc1ncccc1NC(=O)NCC(O)c1ccc(F)cc1F (stereo not given) is ____.
Return: 2.46

Enquiry: Fill in the blank: the reported Percent Effect of Cc1ccc(C(NC(=O)CC2CCN(C(C)C)CC2)C(=O)O)cc1 (stereo not given) is ____.
Return: -0.654

Enquiry: Fill in the blank: the reported Percent Effect of `N#CC1(C(=O)N2CCN(c3nccs3)CC2)CCCCC1` is ____.
Return: 7.71

Enquiry: Fill in the blank: the reported Percent Effect of `CCCC(=O)N1CCC(O)(Cn2c(CC)nc3ccccc3c2=O)CC1` is ____.
Return: 21.5
